Tested on: 996289-038-R-J1-PDC spheroid viability;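 further: luminescence used as a proxy for viable cell amount; spheroids exposed to compounds for seven days before viability read; percent viability relative to DMSO vehicle control as 100%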
Experiment: Anticancer human tumor 996289-038-R-J1-PDC patient-derived colon adenocarcinoma cell line growth inhibition [PI3K]
Details: second compound 10 µM; first compound 0.316 µM; active compounds read low; spheroids with HUVEC and MSC
Answer each item with its documented viability, T/C.
Numbers only, in %.

Some compounds with recorded viability, T/C:
Cn1nccc1Nc1nccc(-c2ccn(C(CO)c3ccc(Cl)c(F)c3)c(=O)c2)n1 (stereo not drawn) + Cc1nc(NC(=O)N2CCCC2C(N)=O)sc1-c1ccnc(C(C)(C)C(F)(F)F)c1
57.9
CC(Cn1ccc(-c2ccc(C#N)c(Cl)c2)n1)NC(=O)c1cc(C(C)O)[nH]n1 (stereo not drawn) + CC(Nc1ncnc2nc[nH]c12)c1cc2cccc(Cl)c2c(=O)n1-c1ccccc1
84.6

// query What reported viability, T/C corresponds to CCCS(=O)(=O)Nc1ccc(F)c(C(=O)c2c[nH]c3ncc(-c4ccc(Cl)cc4)cc23)c1F + Cc1nc(NC(=O)N2CCCC2C(N)=O)sc1-c1ccnc(C(C)(C)C(F)(F)F)c1 on 996289-038-R-J1-PDC spheroid viability?
// result 43.3
